# Test system: CD2F1 mice, L1210 leukemia ip, survival T/C
# assay_text: NCI In Vivo Anticancer Drug Screen. Data for tumor model L1210 Leukemia (intraperitoneal) in CD2F1 (CDF1) mice
# test_parameters: endpoint: mean survival time; dose: 200.0 mg/kg/injection; schedule: Q01DX009 (ip); vehicle: saline with Tween-80; higher = longer survival
Toxic doses and inconclusive results are not listed.
measurement_name: T/C

Case CC1(C)N=C(N)N=C(N)N1c1ccc(OCCNS(=O)(=O)c2cccc(S(=O)(=O)F)c2)c(Cl)c1 , CD2F1 mice, L1210 leukemia ip, survival T/C, T/C recorded as 94 % of control

Case CCOC(=O)NC12c3ccccc3C(c3ccccc31)C(C(=O)O)C2C(=O)O (stereo not given) , CD2F1 mice, L1210 leukemia ip, survival T/C, T/C recorded as 100 % of control

Case COc1ccc2cc(CC(=O)c3ccccc3)ccc2c1 , CD2F1 mice, L1210 leukemia ip, survival T/C, T/C recorded as 96 % of control

Case Cc1oc(N)c(C#N)c1C , CD2F1 mice, L1210 leukemia ip, survival T/C, T/C recorded as 104 % of control

Case Cc1[nH]c2ccccc2c1C(=O)C(N)=O , CD2F1 mice, L1210 leukemia ip, survival T/C, T/C recorded as 97 % of control

Case Cc1n[nH]c2ccc(Br)cc2c1=O , CD2F1 mice, L1210 leukemia ip, survival T/C, T/C recorded as 101 % of control

Case CCCOC(=O)NCCBr , CD2F1 mice, L1210 leukemia ip, survival T/C, T/C recorded as 93 % of control

Case CCOC(=O)c1ccnc2ccc(O)cc12 , CD2F1 mice, L1210 leukemia ip, survival T/C, T/C recorded as 93 % of control

Case CC(C)c1ccc(C2CCCCC2O)cc1 (stereo not given) , CD2F1 mice, L1210 leukemia ip, survival T/C, T/C recorded as 92 % of control

Case COC(=O)C(Cl)c1ccccc1 (stereo not given) , CD2F1 mice, L1210 leukemia ip, survival T/C, T/C recorded as 100 % of control

Case CCCCNC(=O)Oc1ccc(OCc2ccccc2)cc1 , CD2F1 mice, L1210 leukemia ip, survival T/C, T/C recorded as 89 % of control

Case Brc1ccccc1-c1ccccc1-c1ccccc1 , CD2F1 mice, L1210 leukemia ip, survival T/C, T/C recorded as 101 % of control

Case CC1Oc2ccccc2OC1C(=O)NN (stereo not given) , CD2F1 mice, L1210 leukemia ip, survival T/C, T/C recorded as 94 % of control

Case CSc1nc2cc(S(=O)(=O)N3CCCCC3)ccc2s1 , CD2F1 mice, L1210 leukemia ip, survival T/C, T/C recorded as 95 % of control

Case Cc1ccc(S(=O)(=O)N/N=C2\CC3CCC2(C)C3(C)C)cc1 (stereo not given) , CD2F1 mice, L1210 leukemia ip, survival T/C, T/C recorded as 100 % of control

###

Hi there, I'd appreciate the recorded T/C for every entry that follows.
# System: CD2F1 mice, L1210 leukemia ip, survival T/C
# assay_text: NCI In Vivo Anticancer Drug Screen. Data for tumor model L1210 Leukemia (intraperitoneal) in CD2F1 (CDF1) mice
# test_parameters: endpoint: mean survival time; dose: 200.0 mg/kg/injection; schedule: Q04DX003 (ip); vehicle: saline; higher = longer survival
Inconclusive results and toxic doses are left out.

Form: molecule = O=C(O)C1C2CC(O)C(C2)C1C(=O)O (stereo unspecified) ; T/C = 94 % of control

Form: molecule = CCSSCCN ; T/C = 89 % of control

Form: molecule = OC(CBr)C(O)C(O)C(O)CBr (stereo unspecified) ; T/C = 108 % of control

Form: molecule = Cc1cccc(=N)n1CCC(=O)O ; T/C = 94 % of control

Form: molecule = CC(C)OC(N)=O ; T/C = 101 % of control

Form: molecule = CC(=O)C(C)(C)N(C)c1ccccc1 ; T/C = 93 % of control

Form: molecule = CC(C)C(=O)OCC(C)(C)COC(=O)C(C)C ; T/C = 87 % of control

Form: molecule = CSc1ccccc1C1=CCCCC1 ; T/C = 93 % of control

Form: molecule = C/C(=C\c1ccccc1)CCC(=O)O ; T/C = 97 % of control

Form: molecule = O=[P+](O)C(O)c1ccccc1 (stereo unspecified) ; T/C = 111 % of control

Form: molecule = Ic1ncnc2c1ncn2C1CCCO1 (stereo unspecified) ; T/C = 94 % of control

Form: molecule = O=S(=O)(Nc1ccc2ccccc2c1)c1ccccc1 ; T/C = 101 % of control

Form: molecule = O=C1C=CC(=O)N1Cc1ccco1 ; T/C = 95 % of control

Form: molecule = Nc1ncnc2[nH]c(=O)[nH]c12 ; T/C = 112 % of control

Form: molecule = CCCC(=O)O ; T/C = 102 % of control

Form: molecule = CCCCCc1cccc(CC(=O)OCC)n1 ; T/C = 94 % of control

###

Hi there, I'd appreciate the recorded T/C for every entry that follows.
# Test system: CD2F1 mice, L1210 leukemia ip, survival T/C
# assay_text: NCI In Vivo Anticancer Drug Screen. Data for tumor model L1210 Leukemia (intraperitoneal) in CD2F1 (CDF1) mice
# test_parameters: endpoint: mean survival time; dose: 50.0 mg/kg/injection; schedule: Q01DX009 (ip); vehicle: saline with Tween-80; higher = longer survival
Inconclusive results and toxic doses are left out.

Form: molecule = CC(C)(O)c1cccc(F)c1 ; T/C = 102 % of control

Form: molecule = O=c1[nH]cnc2c1ncn2C1OC(CO)C(O)C1O.O=c1[nH]cnc2c1ncn2C1OC(CO)C(O)C1O.[NH2-].[NH2-].[Pt+2] (stereo not given) ; T/C = 100 % of control

Form: molecule = CCOC(=O)Nc1nccs1 ; T/C = 100 % of control

Form: molecule = CCOC(=O)/C(C#N)=C(\C)c1cccc(C)c1 ; T/C = 98 % of control

Form: molecule = Cc1ccc(Cl)c2ccccc12 ; T/C = 97 % of control

Form: molecule = C=C1C(O)CC2CC1C2(C)C (stereo not given) ; T/C = 98 % of control

Form: molecule = CN(C)c1ccc2nc(CC(O)(C(F)(F)F)C(F)(F)F)ccc2c1 ; T/C = 95 % of control

Form: molecule = COc1ccc(NC(=O)Oc2ccccc2C(C)C)cc1 ; T/C = 97 % of control

Form: molecule = Nc1c(Cl)c(Cl)nc(C(=O)O)c1Cl ; T/C = 94 % of control

Form: molecule = CC(C)(O)CN ; T/C = 98 % of control

###

# System: CD2F1 mice, L1210 leukemia ip, survival T/C
# assay_text: NCI In Vivo Anticancer Drug Screen. Data for tumor model L1210 Leukemia (intraperitoneal) in CD2F1 (CDF1) mice
# test_parameters: endpoint: mean survival time; dose: 100.0 mg/kg/injection; schedule: Q04DX003 (ip); vehicle: saline with Tween-80; higher = longer survival
# Experimental: The antitumor activity of compounds was measured in mice bearing transplantable tumors. Survival or tumor size were measured and the results are expressed as the measurement made in the treated group (T) divided by the measurement made in the vehicle treated control group (C). The tumor model used in this assay is L1210 Leukemia (intraperitoneal) in CD2F1 (CDF1) mice
Inconclusive results and toxic doses are left out.
measurement_name: T/C

Form: compound = O=C(Nc1cccc2c1C(=O)c1ccc(Nc3cc(NC(=O)c4ccccc4)c4c(c3)C(=O)c3ccccc3C4=O)cc1C2=O)c1ccccc1 ; T/C = 102 % of control

Form: compound = CCC(C)NC(=O)C1C2CCC(C2)C1C(=O)NC(C)CC (stereo unspecified) ; T/C = 98 % of control

Form: compound = O=C(CCl)N1CCC2(CC1)SSC1(CCN(C(=O)CCl)CC1)S2 ; T/C = 93 % of control

Form: compound = O=C1C=CC(=O)N1c1cc(Cl)ccc1Cl ; T/C = 93 % of control

Form: compound = CCOC(=O)C(Cc1ccccc1Cl)(Cc1ccccc1Cl)c1ccccc1 ; T/C = 93 % of control

Form: compound = CCN1CCCC(Nc2nc(Nc3ccc(Cl)c(Cl)c3)nc3ccc(Cl)cc23)C1 (stereo unspecified) ; T/C = 89 % of control

Form: compound = COc1cc2ccc(CC(=S)N3CCOCC3)cc2cc1OC ; T/C = 104 % of control

Form: compound = O=C(c1cc2c3ccccc3ccc2c2ccccc12)C(Br)Br ; T/C = 93 % of control

Form: compound = Cc1c(Cl)cccc1NC(=O)c1ccc([N+](=O)[O-])cc1 ; T/C = 95 % of control

Form: compound = CCOC(=O)C12CC=CC(CCC1)/C2=N\Nc1ccccc1 (stereo unspecified) ; T/C = 105 % of control

Form: compound = CNC(=S)NC1CCCCC1 ; T/C = 97 % of control

Form: compound = CC(C)C(=O)Nc1cccc(Cl)c1 ; T/C = 97 % of control

Form: compound = COc1ccc(O)c(C=O)c1 ; T/C = 100 % of control

Form: compound = C1CCC2C(C1)CC1CCCCC1C2C1C2CCCCC2CC2CCCCC21 (stereo unspecified) ; T/C = 97 % of control

Form: compound = COc1ccc(N=C2C=CC(=O)O2)cc1 ; T/C = 101 % of control

Form: compound = O=C(C[n+]1csc2ccccc21)c1ccccc1 ; T/C = 97 % of control

Form: compound = CCCCCCCCCCCCOC(=O)C[n+]1cccc(C(=O)Nc2ccc(Cl)cc2)c1 ; T/C = 103 % of control

Form: compound = C[n+]1ccccc1NC(=O)c1ccccc1 ; T/C = 98 % of control

Form: compound = O=[N+]([O-])c1ccc(Nc2ccc(Br)cc2)c([N+](=O)[O-])c1 ; T/C = 95 % of control

Form: compound = C1CC[N-]CC1.C1CC[N-]CC1.[Cl][Pt+2]([Cl])([Cl])[Cl] ; T/C = 97 % of control

Form: compound = O=[N+]([O-])c1ccc2nc(CC(O)(C(F)(F)F)C(F)(F)F)ccc2c1 ; T/C = 102 % of control

Form: compound = CCOC(=O)C(CCCCC(NC(C)=O)(C(=O)OCC)C(=O)OCC)(NC(C)=O)C(=O)OCC ; T/C = 98 % of control

Form: compound = Br/C(C=Nc1ccccc1)=C\Nc1ccccc1 ; T/C = 101 % of control

Form: compound = c1ccc2c(c1)OC1(CCCCC1)O2 ; T/C = 100 % of control

Form: compound = COc1ccc(OC)c(NC(=S)NC(=O)c2cccc(Br)c2)c1 ; T/C = 95 % of control

Form: compound = Fc1cc(F)c(F)c(Oc2c(F)c(F)c(-c3c(F)c(F)c(F)c(F)c3F)c(F)c2F)c1F ; T/C = 100 % of control
